From: ChEMBL document CHEMBL4229414

Overview of reported inhibition across a group of molecules:
Subject of test: D(2) dopamine receptor (Homo sapiens)
Test: Antagonist activity at human D2L receptor expressed in CHOK1 cells assessed as inhibition of dopamine-induced calcium flux at 0.1 uM by fluorescence assay relative to control
Assay type: functional, cell-based
Number only, in %; omit the unit.

- Molecule: "CCCN1C[C@H]2OC[C@@H]1C[C@]2(O)c1ccccc1OC"
  inhibition, %: 12
- Molecule: "CCCN1[C@H]2CC[C@H]1CC(c1ccc(OC)c(OC)c1)C2 (relative stereo)"
  inhibition, %: 8
- Molecule: "CCCN1[C@H]2CC[C@H]1CC(c1ccccc1OC)C2 (relative stereo; 8a)"
  inhibition, %: 14

## Input Using the record for CCCN1[C@H]2COC[C@H]1CC(c1ccccc1OC)C2 (relative stereo; 20) , report its inhibition.
## Output 10

## Input I would be grateful if you could share the reported inhibition for CCCN1C[C@H]2OC[C@@H]1C[C@H]2c1ccccc1OC .
## Output -6

## Input inhibition for CCCN1[C@H]2CC[C@H]1CC(c1cccc(OC)c1)C2 (relative stereo) ?
## Output 12

## Input Request the reported inhibition associated with CCCN1C[C@H]2OC[C@@H]1C[C@@]2(O)c1ccccc1OC
## Output 4

## Input Sample CCCN1CCC(c2ccccc2OC)CC1 — what was its inhibition?
## Output -7

## Input Return reported inhibition; argument: CCCN1[C@H]2COC[C@H]1CC(c1ccccc1OC)C2 (relative stereo; 16)
## Output 21

## Input Find the recorded inhibition belonging to CCCN1[C@H]2CC[C@H]1CC(c1cc(OC)c(OC)c(OC)c1)C2 (relative stereo) and report it.
## Output 12

## Input Look up inhibition for this molecule: CCCN1[C@H]2CC[C@H]1CC(c1ccccc1OC)C2 (relative stereo; 4)
## Output 19

## Input inhibition for CCCN1[C@H]2CC[C@H]1CC(c1ccc(OC)cc1)C2 (relative stereo) ?
## Output 0

## Input Value lookup for inhibition; key = CCCN1[C@@H]2COC[C@H]1CN(c1ccccc1OC)C2
## Output 9

---

Test: Stability in rat microsomes; also: time not given here
Type: ADME, Microsome
Metric: Stability (%)
State the answer as a number, implicitly in %.

- Compound: "CCCN1[C@H]2CC[C@H]1CC(O)(c1ccccc1OC)C2 (relative stereo)"
  Observed: 12
- Compound: "CCCN1[C@H]2CC[C@H]1CC(c1ccccc1OC)C2 (relative stereo; 8a)"
  Observed: 2

## Input For the compound shown here, CCCN1[C@@H]2COC[C@H]1CN(c1ccccc1OC)C2 , give the reported Stability.
## Output 4

## Input I'd like to know its Stability. The compound in question is CCCN1[C@H]2CC[C@H]1CC(c1cccc(OC)c1)C2 (relative stereo)
## Output 2

## Input Entry CCCN1[C@H]2COC[C@H]1CC(c1ccccc1OC)C2 (relative stereo; 20) has what Stability?
## Output 1

## Input Record request: Stability value, item CCCN1C[C@H]2OC[C@@H]1C[C@@H]2c1ccccc1OC
## Output 3

## Input Please look up its Stability: CCCN1CCN(c2ccccc2OC)CC1
## Output 2

## Input Would you mind telling me what Stability value was observed for CCCN1C[C@H]2OC[C@@H]1C[C@H]2c1ccccc1OC ?
## Output 3

---

Test: Stability in mouse microsomes; also: time not given here
Format: ADME, Microsome
Tick YES if Stability is 6% or greater. Tick NO if Stability is less than 6%.

- Compound: "CCCN1C[C@H]2OC[C@@H]1C[C@]2(O)c1ccccc1OC"
  Assigned label: "YES"
- Compound: "CCCN1[C@H]2CC[C@H]1CC(c1cc(OC)c(OC)c(OC)c1)C2 (relative stereo)"
  Assigned label: "NO"
- Compound: "CCCN1C[C@H]2OC[C@@H]1C[C@@H]2c1ccccc1OC"
  Assigned label: "NO"
- Compound: "CCCN1C[C@H]2OC[C@@H]1C[C@H]2c1ccccc1OC"
  Assigned label: "YES"
- Compound: "CCCN1CCN(c2ccccc2OC)CC1"
  Assigned label: "NO"

Could you now consider this next compound?
## Input Assess whether reported Stability for CCCN1[C@H]2CC[C@H]1CC(c1cccc(OC)c1)C2 (relative stereo) sits at 6% or higher.
## Output NO

---

Subject of test: hERG (KCNH2) (Homo sapiens, UniProt Q12809)
Sequence (Q12809 whole entry): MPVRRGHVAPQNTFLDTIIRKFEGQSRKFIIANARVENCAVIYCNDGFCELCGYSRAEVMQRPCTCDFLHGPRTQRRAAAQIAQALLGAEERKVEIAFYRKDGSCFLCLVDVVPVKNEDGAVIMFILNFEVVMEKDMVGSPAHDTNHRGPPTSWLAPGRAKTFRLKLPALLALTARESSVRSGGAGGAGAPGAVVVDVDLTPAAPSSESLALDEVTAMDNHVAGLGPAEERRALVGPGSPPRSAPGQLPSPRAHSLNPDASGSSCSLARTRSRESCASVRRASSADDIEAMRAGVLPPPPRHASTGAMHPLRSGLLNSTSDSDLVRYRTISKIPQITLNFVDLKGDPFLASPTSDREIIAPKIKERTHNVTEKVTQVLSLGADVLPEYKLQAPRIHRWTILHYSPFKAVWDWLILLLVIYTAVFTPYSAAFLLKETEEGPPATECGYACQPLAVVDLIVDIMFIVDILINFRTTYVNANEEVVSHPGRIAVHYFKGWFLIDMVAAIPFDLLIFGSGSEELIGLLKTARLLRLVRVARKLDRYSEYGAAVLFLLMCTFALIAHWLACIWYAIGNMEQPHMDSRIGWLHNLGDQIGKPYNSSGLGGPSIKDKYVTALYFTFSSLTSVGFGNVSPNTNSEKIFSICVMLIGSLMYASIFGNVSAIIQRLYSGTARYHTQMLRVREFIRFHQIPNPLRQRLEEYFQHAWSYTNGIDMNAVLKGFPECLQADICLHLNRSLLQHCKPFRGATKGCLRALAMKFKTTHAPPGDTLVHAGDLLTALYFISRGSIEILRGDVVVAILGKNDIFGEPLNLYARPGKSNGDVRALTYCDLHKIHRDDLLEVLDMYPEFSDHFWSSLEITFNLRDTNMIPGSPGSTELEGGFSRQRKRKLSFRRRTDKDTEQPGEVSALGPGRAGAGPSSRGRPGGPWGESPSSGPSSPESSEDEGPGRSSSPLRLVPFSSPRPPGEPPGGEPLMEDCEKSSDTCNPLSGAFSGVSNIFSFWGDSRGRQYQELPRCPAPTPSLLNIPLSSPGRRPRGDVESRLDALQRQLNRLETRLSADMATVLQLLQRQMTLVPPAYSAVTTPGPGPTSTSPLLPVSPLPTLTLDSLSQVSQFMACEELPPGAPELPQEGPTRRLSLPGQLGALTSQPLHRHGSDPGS
Test: Inhibition of human ERG at 10 uM relative to control
Below, each entry is listed with its recorded inhibition at 10 µM.
Field format: number, assumed %, no unit text.

- Compound: "CCCN1C[C@H]2OC[C@@H]1C[C@@]2(O)c1ccccc1OC"
  Metric: "inhibition at 10 µM"
  Scale unit: "%"
  Observed: 6
- Compound: "CCCN1C[C@H]2OC[C@@H]1C[C@H]2c1ccccc1OC"
  Metric: "inhibition at 10 µM"
  Scale unit: "%"
  Observed: 22
- Compound: "CCCN1[C@H]2CC[C@H]1CC(c1cccc(OC)c1)C2 (relative stereo)"
  Metric: "inhibition at 10 µM"
  Scale unit: "%"
  Observed: 81
- Compound: "CCCN1[C@H]2CC[C@H]1CC(c1ccc(OC)cc1)C2 (relative stereo)"
  Metric: "inhibition at 10 µM"
  Scale unit: "%"
  Observed: 93
- Compound: "CCCN1C[C@H]2OC[C@@H]1C[C@@H]2c1ccccc1OC"
  Metric: "inhibition at 10 µM"
  Scale unit: "%"
  Observed: 15
- Compound: "CCCN1CCN(c2ccccc2OC)CC1"
  Metric: "inhibition at 10 µM"
  Scale unit: "%"
  Observed: 41
- Compound: "CCCN1[C@H]2CC[C@H]1CC(c1ccccc1OC)C2 (relative stereo; 8a)"
  Metric: "inhibition at 10 µM"
  Scale unit: "%"
  Observed: 74
- Compound: "CCCN1C[C@H]2OC[C@@H]1C[C@]2(O)c1ccccc1OC"
  Metric: "inhibition at 10 µM"
  Scale unit: "%"
  Observed: 14
- Compound: "CCCN1CCC(c2ccccc2OC)CC1"
  Metric: "inhibition at 10 µM"
  Scale unit: "%"
  Observed: 14

Turning now to a further compound:
## Input Record request: inhibition at 10 µM value, item CCCN1[C@H]2CC[C@H]1CC(c1ccc(OC)c(OC)c1)C2 (relative stereo)
## Output 85

---

Parameter inhibition: see the listing below.
Subject of test: D(2) dopamine receptor (Homo sapiens)
Test: Agonist activity at human D2L receptor expressed in CHOK1 cells assessed as inhibition of receptor response at 0.1 uM by calcium flux assay relative to control
Format: functional, cell-based
All answers are understood in %, so give the number only.

Example entries begin here.
- Compound: "CCCN1[C@H]2COC[C@H]1CC(c1ccccc1OC)C2 (relative stereo; 16)"
  Scale unit: "%"
  inhibition: 4
- Compound: "CCCN1[C@H]2CC[C@H]1CC(c1ccccc1OC)C2 (relative stereo; 4)"
  Scale unit: "%"
  inhibition: 8
- Compound: "CCCN1C[C@H]2OC[C@@H]1C[C@@]2(O)c1ccccc1OC"
  Scale unit: "%"
  inhibition: 25
- Compound: "CCCN1C[C@H]2OC[C@@H]1C[C@@H]2c1ccccc1OC"
  Scale unit: "%"
  inhibition: 25
- Compound: "CCCN1[C@@H]2COC[C@H]1CN(c1ccccc1OC)C2"
  Scale unit: "%"
  inhibition: 3

## Input Need inhibition of CCCN1C[C@H]2OC[C@@H]1C[C@H]2c1ccccc1OC , thanks.
## Output 4

## Input Query (compound): CCCN1[C@H]2COC[C@H]1CC(c1ccccc1OC)C2 (relative stereo; 20) ; field requested: inhibition
## Output 22

## Input Find the recorded inhibition belonging to CCCN1C[C@H]2OC[C@@H]1C[C@]2(O)c1ccccc1OC and report it.
## Output 6

## Input For CCCN1[C@H]2CC[C@H]1CC(c1cc(OC)c(OC)c(OC)c1)C2 (relative stereo) , what is its reported inhibition?
## Output 0

## Input Endpoint output: inhibition of CCCN1[C@H]2CC[C@H]1CC(c1cccc(OC)c1)C2 (relative stereo) . Value?
## Output 9

## Input Please give the measured inhibition for this compound: CCCN1[C@H]2CC[C@H]1CC(c1ccc(OC)c(OC)c1)C2 (relative stereo)
## Output 6

---

Each entry below carries its recorded inhibition at 3 µM.
Subject of test: hERG (KCNH2) (Homo sapiens, UniProt Q12809)
Test: Inhibition of human ERG at 3 uM relative to control

Solved cases below.
- Molecule: "CCCN1[C@H]2CC[C@H]1CC(c1ccc(OC)cc1)C2 (relative stereo)"
  inhibition at 3 µM: "78%"
- Molecule: "CCCN1C[C@H]2OC[C@@H]1C[C@@H]2c1ccccc1OC"
  inhibition at 3 µM: "3%"
- Molecule: "CCCN1[C@H]2CC[C@H]1CC(c1ccc(OC)c(OC)c1)C2 (relative stereo)"
  inhibition at 3 µM: "62%"

Next molecule, inhibition at 3 µM to be filled in.
## Input Quick check: inhibition at 3 µM of CCCN1[C@@H]2COC[C@H]1CN(c1ccccc1OC)C2 ?
## Output 2%
